- System: CU-ACC1
- ASSAY_PROTOCOL: area under concentration-response curve (viability) (AUC (a.u.)); higher = less active
- MEASUREMENT_SETUP: 48 h
Cut-off 500 on area under concentration-response curve, inclusive. At or above means YES; below means NO.

* N=C(N)Nc1ccc(C(=O)Oc2ccc3cc(C(=N)N)ccc3c2)cc1 | NO
* Cn1c(COP(=O)(NCCBr)NCCBr)cnc1[N+](=O)[O-] | NO
* CC(C)[C@H](O)C(=O)N[C@@H](C)C(=O)N[C@@H]1C(=O)N(C)CCc2ccccc21 | YES
* CNC(=O)c1cccc2cc(Oc3ccnc4cc(OCC5(N)CC5)c(OC)cc34)ccc12 | NO
* CC(C)(C)NC(=O)[C@H]1CC[C@H]2[C@@H]3CC[C@H]4NC(=O)\C=C/[C@]4(C)[C@H]3CC[C@]12C | YES
* OC(Cn1cncn1)(Cn1cncn1)c1ccc(F)cc1F | NO
* COc1cc(OC2CCN(C)CC2)ccc1Nc1ncc2c(n1)n(C1CCCC1)c(=O)n2C | NO
* O=[N+]([O-])c1ccc(O)c2ncccc12 | NO

====

- Test system: NCI-H295R
- ASSAY_PROTOCOL: area under concentration-response curve (viability) (AUC (a.u.)); higher = less active
- MEASUREMENT_SETUP: 48 h
Use y when the recorded area under concentration-response curve is no lower than 500; use n when it is lower.

• CCCN[S+](=O)([O-])Nc1ncnc(OCCOc2ncc(Br)cn2)c1-c1ccc(Br)cc1 = y
• N#Cc1cccc(-c2c[nH]c3ncnc(N4CCOCC4)c23)c1 = y
• O=C(Nc1ccncc1)C(=O)c1cn(Cc2ccc(Cl)cc2)c2ccccc12 = n
• CCCNC(=O)c1cn2ncnc(Nc3cc(C(=O)NC4CC4)ccc3C)c2c1C = y
• CN1CCN(C)C(=O)C1C2=CC=C(N/C3=N/C(=C\N(C)C3=O)C4=C(C)C(=CC=C4)NC(=O)C5=CC6=C(CCCC6)S5)C=C2 (stereo not drawn) = y
• COc1cc2ncnc(Nc3cc(Br)c(O)c(Br)c3)c2cc1OC = y
• O=C(CCc1ccc(O)cc1)c1c(O)cc(O)cc1O = y
• CC(=O)N1CCN(c2ccc(OC[C@H]3CO[C@](Cn4ccnc4)(c4ccc(Cl)cc4Cl)O3)cc2)CC1 = n
• Cc1ccc([S+](=O)([O-])NC(=O)NN2CC3CCCC3C2)cc1 (stereo not drawn) = y
• O=C(NCc1ccccc1)c1csc(Nc2ccncn2)n1 = n
• OC1=C(C=CC=C1)C2=CC=C(C=C2)C3=CSC4=C3C(=C(/C#N)C(=O)N4)/O = y
• O=C(O)c1cc(O)c2c(c1)C(=O)c1cccc(O)c1C2=O = y
• CN1CCN(c2ccc(OC(F)(F)F)c(Nc3ncc4c(n3)-c3c(c(C(N)=O)nn3CCO)CC4)c2)CC1 = n
• COc1ccc(-c2ccc3ncc4c(c3c2)n(-c2ccc(N3CCNCC3)c(C(F)(F)F)c2)c(=O)n4C)cn1 = n
• CCN(CC)CCNC(=O)c1c(C)[nH]c(/C=C2\C(=O)Nc3ccc(F)cc32)c1C = n

====

- System: NCI-H295R
- ASSAY_PROTOCOL: ExcessHSA synergy score with TAK-243; higher = less synergy (negative = synergistic)
- MEASUREMENT_SETUP: combined with: TAK-243 (MLN-7243) matrix, 9-point 1:2 dilution
Outcome label depends on ExcessHSA synergy score with TAK-243 relative to 600: at/above gives Condition met, below gives Condition not met.

- CC1=C(/C=C/C(C)=C/C=C/C(C)=C\C(=O)O)C(C)(C)CCC1: Condition met
- Cc1cnc(CNC(=O)c2c(=O)c3ccc(N4CCCN(C)CC4)nc3n3c2sc2ccccc23)cn1: Condition met
- N[C@H]1CC[C@H](N[C@@H]2C[C@H]2c2ccccc2)CC1: Condition not met
- COc1c(OCCCN2CCOCC2)ccc2c3n(c(=NC(=O)c4cnc(N)nc4)nc12)CCN3: Condition not met
- CC(C)[C@@H](CS(=O)(=O)C(C)C)N1C(=O)[C@@](C)(CC(=O)O)C[C@H](c2cccc(Cl)c2)[C@H]1c1ccc(Cl)cc1: Condition not met
- C[C@@H]1CN(Cc2ccc(F)cc2)[C@@H](C)CN1C(=O)c1cc2c(C(=O)C(=O)N(C)C)cn(C)c2cc1Cl: Condition met
- CO[C@H]1/C=C/C[C@H](C)[C@@H](C)S(=O)(=O)NC(=O)c2ccc3c(c2)N(C[C@@H]2CC[C@H]21)C[C@@]1(CCCc2cc(Cl)ccc21)CO3: Condition not met
- O=C(c1ccc(F)c(F)c1Nc1ccc(I)cc1F)N1CC(O)([C@@H]2CCCCN2)C1: Condition met
- Cc1nc(-c2nc(-c3ccc(OC(F)(F)F)cc3)no2)nn1Cc1cccc(N2CCC(S(C)(=O)=O)CC2)c1: Condition met
- CC(=O)N1CCC(Nc2cc(C(=O)NC[C@H](O)CN3CCc4ccccc4C3)ncn2)CC1: Condition met

====

- Tested on: NCI-H295R
- ASSAY_PROTOCOL: area under concentration-response curve (viability) (AUC (a.u.)); higher = less active
- MEASUREMENT_SETUP: 48 h
ASSAY_READOUT: area under concentration-response curve

* CC(N)C12CC3CC(CC(C3)C1)C2 (configuration not stated) | 494
* O=[N+]([O-])c1ccc(-c2nc(-c3ccc(F)cc3)c(-c3ccncc3)[nH]2)cc1 | 489
* C[N]1C=C(C=N1)C2=C3\C=N/NC(=O)C4=C3C(=CC(=C4)NC(=O)[C@H](N)C5CCCCC5)[NH]2 | 555
* NCCCC[C@H](NC(=O)[C@@H](NC(=O)[C@H](Cc1c[nH]c2ccccc12)NC(=O)[C@H](CCCCN)NC(=O)[C@H](CCCCN)NC(=O)[C@H](Cc1c[nH]c2ccccc12)NC(=O)[C@H](Cc1c[nH]c2ccccc12)NC(=O)[C@H](CCCCN)NC(=O)[C@@H](N)CCCCN)C(c1ccccc1)c1ccccc1)C(N)=O | 310
* CC1=C(F)C=CC(=C1)N2C(=O)\C=C/C3=C2C4=C([NH]C=C4)N=C3 | 527
* Nc1ncnc2c1ncn2[C@@H]1O[C@H](CO)C[C@H]1O | 528
* CCC(CC)CC1(C(=O)Nc2ccccc2SC(=O)C(C)C)CCCCC1 | 537

====

- Tested on: CU-ACC1
- ASSAY_PROTOCOL: area under concentration-response curve (viability) (AUC (a.u.)); higher = less active
- MEASUREMENT_SETUP: 48 h
ASSAY_READOUT: area under concentration-response curve

- O[C@H](C[C@H]1c2c(F)cccc2-c2cncn21)[C@H]1CC[C@H](O)CC1: 553
- COc1cc(CNC(=O)CCCC/C=C/C(C)C)ccc1O: 542
- CCCCN(CCCC)CC(O)c1cc(Cl)cc2c1-c1ccc(Cl)cc1/C2=C/c1ccc(Cl)cc1 (stereo not drawn): 546

====

- Tested on: NCI-H295R
- ASSAY_PROTOCOL: AC50 viability; higher = less potent
- MEASUREMENT_SETUP: 48 h
Binarize AC50 viability at 10 µM; below is Criterion met, at or above is Criterion not met.

- CCNc1cc(NC2CCC(O)CC2)nc(Nc2ccc3c(ccn3Cc3ccccc3)c2)n1 (stereo not given): Criterion met
- C[C@@H]1C[C@@H]([C@H](O)CC2CC(=O)NC(=O)C2)C(=O)[C@@H](C)C1: Criterion met
- CC(C)(O)c1cc2nc(-c3cnc(N)nc3)nc(N3CCOCC3)c2s1: Criterion met
- C/C=C(\C)C(=O)N[C@@H](c1ccccc1)[C@@H](O)C(=O)O[C@H]1C[C@@]2(O)[C@@H](OC(=O)c3ccccc3)[C@@H]3[C@]4(OC(C)=O)CO[C@@H]4C[C@H](O)[C@@]3(C)C(=O)[C@H](OC(C)=O)C(=C1C)C2(C)C: Criterion met
- Cc1c(C(=O)NN2CCCCC2)nn(-c2ccc(Cl)cc2Cl)c1-c1ccc(Cl)cc1: Criterion not met
- C[S+](=O)([O-])N1CCC(NC(=O)c2[nH]ncc2NC(=O)c2c(Cl)cccc2Cl)CC1: Criterion not met
- COC1(c2sc3c(N4CCOCC4)nc(-c4cnc(N)nc4)nc3c2C)COC1: Criterion met
- CC[S+](=O)([O-])N1CCN(c2ccc(Nc3ncc(C(N)=O)c(NC4CC4)n3)cc2)CC1: Criterion not met
- NC(=O)[C@@H](CCC(F)(F)F)N(Cc1ccc(-c2ncon2)cc1F)[S+](=O)([O-])c1ccc(Cl)cc1: Criterion not met
- CC(=O)Nc1cc(Oc2ccc3c(nc(Nc4ccc(F)cc4F)n3C)c2C)ccn1: Criterion not met
- Cc1nc(N)ncc1-c1nc(N2CCOCC2)c2sc(C(C)(C)O)cc2n1: Criterion met
- COc1cc(F)ccc1-c1ncnc(Nc2cccc(C[S+](C)(=N)[O-])c2)n1 (stereo not given): Criterion met
- Cc1ccc(NC(=O)c2ccc(CN3CCN(C)CC3)cc2)cc1Nc1nc(-c2cccnc2)cs1: Criterion not met
- NC(CO)(CO)CCc1ccc(Sc2cccc(OCc3ccccc3)c2)cc1Cl: Criterion not met
- N#Cc1c(NC(=O)c2cccc3ccccc23)sc2c1CCCC2: Criterion met
- CCCCNc1ncc2c(-c3ccc(F)cc3)nn(C[C@H]3CC[C@H](N)CC3)c2n1: Criterion not met
- Nc1ncnc2c1c(-c1cnc3[nH]ccc3c1)nn2C1CCCC1: Criterion met
- c1cncc(CN2CCC(n3ncc4c(N5CCOCC5)nc(-c5ccc6[nH]ccc6c5)nc43)CC2)c1: Criterion not met
- Cc1cc(-c2ccc(CC(=O)Nc3ccc(-c4cccnc4)cc3)cc2)ccn1: Criterion not met
- CCc1cncnc1N1CCN(Cc2nc3cc(C(F)(F)F)ccc3[nH]2)CC1: Criterion not met
- Cc1nc([C@](C)(O)CO)sc1-c1cnc(N)c(O[C@H](C)c2cc(F)ccc2-n2nccn2)c1: Criterion met
- NC(=O)[C@H]1CCS[C@@H]2C[C@]3(CCCN3C(=O)Cc3ccc(NC(=O)COc4ccc(Cl)cc4Cl)cc3)C(=O)N12: Criterion not met
- CC[S+](=O)([O-])N1CC(CC#N)(n2cc(-c3ncnc4[nH]ccc34)cn2)C1: Criterion not met
- CC[C@H](C)[N]1C=C(C)C2=C1C=C(C=C2C(=O)NC\C3=C(C)\C=C(\C)NC3=O)C4=CC=C(N=C4)N5CCNCC5: Criterion not met
- NC(=O)Nc1cc(-c2cccc(F)c2)sc1C(=O)N[C@H]1CCCNC1: Criterion met
- CC[P](CC)(CC)=[Au][S][C@@H]1O[C@H](COC(C)=O)[C@@H](OC(C)=O)[C@H](OC(C)=O)[C@H]1OC(C)=O: Criterion met
- COc1cc(O)c2c(c1)C1OC1C[C@H](O)[C@H](O)C(=O)/C=C\C[C@H](C)OC2=O (stereo not given in full): Criterion not met
- CO[C@@H]1[C@@H](O)[C@H](O)[C@@H](n2c3c(Cl)cccc3c3c4c(c5c6cccc(Cl)c6[nH]c5c32)C(=O)NC4=O)O[C@H]1CO: Criterion met
- CN(C)CCN(C)C(=O)c1ccc(NC(=O)Nc2ccc(-c3nc(N4CCOCC4)c4ccn(CC(F)(F)F)c4n3)cc2)cc1: Criterion met
- CCc1cc(-c2n[nH]c(C)c2-c2ccc3c(c2)OCCO3)c(O)cc1O: Criterion not met
